Each recorded value in this set is attributed to the supplement of paper PMC10567573.

B1: WSB1 (parent)
chain: FSHDGLHVASLADDKMVRFWRIDE

Variants of: B1
Assay: protein stability index of a GFP-peptide fusion (GPS, HEK-293T) (PSI 1-6); higher = more stable;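 also: lentivirally expressed fusions sorted by FACS into six bins by GFP to DsRed ratio, PSI derived from sequencing read proportions per bin multiplied by bin number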
Conditions: c terminus: a fixed tail appended
Assign criterion met to entries whose protein stability index meets or exceeds 2; assign criterion not met to the rest.

Below, 5 variants whose answers are already recorded.
[
  {
    "sequence variant": "V8I",
    "assigned label": "criterion not met"
  },
  {
    "sequence variant": "W20Y",
    "assigned label": "criterion met"
  },
  {
    "sequence variant": "M16V",
    "assigned label": "criterion met"
  },
  {
    "sequence variant": "A12S",
    "assigned label": "criterion not met"
  },
  {
    "sequence variant": "R18C",
    "assigned label": "criterion not met"
  }
]

**Query** Tell me whether protein stability index is at least 2 here: S10F
**Result** criterion met

**Query** Tell me whether protein stability index is at least 2 here: D14Q
**Result** criterion not met
